Reference source for all entries: PubChem BioAssay AID1963972

A collection of compounds and their measured viability, T/C
- System: 945468-187-T-J2-PDC spheroids viability
- Test Method Notes: Anticancer human tumor 945468-187-T-J2-PDC patient-derived rectal carcinoma cell line growth inhibition [PI3K]
- Measurement Context: second compound 1 µM; first compound 0.316 µM; active compounds read low; spheroids with HUVEC and MSC

Solved cases (2 shown):
{"Compound": "CC1(C)CCC(Nc2ncc(C(F)(F)F)c(-c3c[nH]c4c(P(C)(C)=O)c(C#N)ccc34)n2)CN1 (stereo unspecified) + Cc1nc(NC(=O)N2CCCC2C(N)=O)sc1-c1ccnc(C(C)(C)C(F)(F)F)c1", "Result": "91.4%"}
{"Compound": "Cn1ncc(Cl)c1-c1cc(C(=O)NC(CN)Cc2cccc(F)c2)sc1Cl (stereo unspecified) + CC(Nc1ccc2c(c1)OCCn1cc(N3C(=O)OCC3C(F)F)nc1-2)C(N)=O", "Result": "68.5%"}

**Query** I'm curious: which viability, T/C was measured for CNC(=O)c1ccc(N2C(=S)N(c3ccc(C#N)c(C(F)(F)F)c3)C(=O)C2(C)C)cc1F + CC(Nc1ncnc2nc[nH]c12)c1cc2cccc(Cl)c2c(=O)n1-c1ccccc1 tested on 945468-187-T-J2-PDC spheroids viability?
**Result** 100%

**Query** I'm curious: which viability, T/C was measured for CC(Cn1ccc(-c2ccc(C#N)c(Cl)c2)n1)NC(=O)c1cc(C(C)O)[nH]n1 (stereo unspecified) + CC(Nc1ncnc2nc[nH]c12)c1cc2cccc(Cl)c2c(=O)n1-c1ccccc1 tested on 945468-187-T-J2-PDC spheroids viability?
**Result** 78.4%

**Query** I'm curious: which viability, T/C was measured for CC(C)NCC(C(=O)N1CCN(c2ncnc3c2C(C)CC3O)CC1)c1ccc(Cl)cc1 (stereo unspecified) + CC(Nc1ncnc2nc[nH]c12)c1cc2cccc(Cl)c2c(=O)n1-c1ccccc1 tested on 945468-187-T-J2-PDC spheroids viability?
**Result** 86.4%

**Query** I'm curious: which viability, T/C was measured for CC(C)NCC(C(=O)N1CCN(c2ncnc3c2C(C)CC3O)CC1)c1ccc(Cl)cc1 (stereo unspecified) + COc1c(OCCCN2CCOCC2)ccc2c3n(c(=NC(=O)c4cnc(N)nc4)nc12)CCN3 tested on 945468-187-T-J2-PDC spheroids viability?
**Result** 23.3%

---

- Tested on: 945468-187-T-J2-PDC spheroids viability
- Test Method Notes: Anticancer human tumor 945468-187-T-J2-PDC cell line growth inhibition [PI3K];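 further: spheroids exposed to compounds for seven days before reading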
- Measurement Context: second compound 0.1 µM; first compound 3.16 µM; active compounds read low; spheroids with HUVEC and MSC
A collection of compounds and their measured viability, T/C
Value expressed in %; do not type the unit.

Solved cases (3 shown):
{"Compound": "Cn1nccc1Nc1nccc(-c2ccn(C(CO)c3ccc(Cl)c(F)c3)c(=O)c2)n1 (stereo unspecified) + CC(Nc1ncnc2nc[nH]c12)c1cc2cccc(Cl)c2c(=O)n1-c1ccccc1", "Attribute Measured": "viability, T/C", "Scale Unit": "%", "Number": 101}
{"Compound": "C=CC(=O)N1CCN(c2nc(=O)n(-c3c(C)ccnc3C(C)C)c3nc(-c4c(O)cccc4F)c(F)cc23)C(C)C1 (stereo unspecified) + COc1c(OCCCN2CCOCC2)ccc2c3n(c(=NC(=O)c4cnc(N)nc4)nc12)CCN3", "Attribute Measured": "viability, T/C", "Scale Unit": "%", "Number": 85}
{"Compound": "C=CC(=O)N1CCN(c2nc(=O)n(-c3c(C)ccnc3C(C)C)c3nc(-c4c(O)cccc4F)c(F)cc23)C(C)C1 (stereo unspecified) + CC(Nc1ncnc2nc[nH]c12)c1cc2cccc(Cl)c2c(=O)n1-c1ccccc1", "Attribute Measured": "viability, T/C", "Scale Unit": "%", "Number": 93}

**Query** I'm curious: which viability, T/C was measured for Cn1ncc(Cl)c1-c1cc(C(=O)NC(CN)Cc2cccc(F)c2)sc1Cl (stereo unspecified) + CC(Nc1ccc2c(c1)OCCn1cc(N3C(=O)OCC3C(F)F)nc1-2)C(N)=O tested on 945468-187-T-J2-PDC spheroids viability?
**Result** 62.2

**Query** I'm curious: which viability, T/C was measured for Cn1ncc(Cl)c1-c1cc(C(=O)NC(CN)Cc2cccc(F)c2)sc1Cl (stereo unspecified) + Cc1nc(NC(=O)N2CCCC2C(N)=O)sc1-c1ccnc(C(C)(C)C(F)(F)F)c1 tested on 945468-187-T-J2-PDC spheroids viability?
**Result** 72.3

**Query** I'm curious: which viability, T/C was measured for CC1(C)CCC(Nc2ncc(C(F)(F)F)c(-c3c[nH]c4c(P(C)(C)=O)c(C#N)ccc34)n2)CN1 (stereo unspecified) + COc1c(OCCCN2CCOCC2)ccc2c3n(c(=NC(=O)c4cnc(N)nc4)nc12)CCN3 tested on 945468-187-T-J2-PDC spheroids viability?
**Result** 37.3

**Query** I'm curious: which viability, T/C was measured for C[C@@H](NC(=O)c1ncnc(N)c1Cl)c1ncc(C(=O)Nc2cc(C(F)(F)F)c(Cl)cn2)s1 + COc1c(OCCCN2CCOCC2)ccc2c3n(c(=NC(=O)c4cnc(N)nc4)nc12)CCN3 tested on 945468-187-T-J2-PDC spheroids viability?
**Result** 92.7

**Query** I'm curious: which viability, T/C was measured for Cn1ncc(Cl)c1-c1cc(C(=O)NC(CN)Cc2cccc(F)c2)sc1Cl (stereo unspecified) + CC(Nc1ncnc2nc[nH]c12)c1cc2cccc(Cl)c2c(=O)n1-c1ccccc1 tested on 945468-187-T-J2-PDC spheroids viability?
**Result** 93.2

**Query** I'm curious: which viability, T/C was measured for CC1(C)CCC(Nc2ncc(C(F)(F)F)c(-c3c[nH]c4c(P(C)(C)=O)c(C#N)ccc34)n2)CN1 (stereo unspecified) + Cc1nc(NC(=O)N2CCCC2C(N)=O)sc1-c1ccnc(C(C)(C)C(F)(F)F)c1 tested on 945468-187-T-J2-PDC spheroids viability?
**Result** 53.1

---

- Test system: 945468-187-T-J2-PDC spheroids viability
- Test Method Notes: Anticancer human tumor 945468-187-T-J2-PDC cell line growth inhibition [PI3K];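 further: spheroids exposed to compounds for seven days before reading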
- Measurement Context: second compound 0.0316 µM; first compound 0.316 µM; active compounds read low; spheroids with HUVEC and MSC
Attribute Measured: viability, T/C (%)
Value expressed in %; do not type the unit.

Solved cases (4 shown):
{"Compound": "CC(C)NCC(C(=O)N1CCN(c2ncnc3c2C(C)CC3O)CC1)c1ccc(Cl)cc1 (stereo not given) + Cc1nc(NC(=O)N2CCCC2C(N)=O)sc1-c1ccnc(C(C)(C)C(F)(F)F)c1", "Target Under Test": "945468-187-T-J2-PDC spheroids viability", "Attribute Measured": "viability, T/C", "Scale Unit": "%", "Number": 140}
{"Compound": "CC(Cn1ccc(-c2ccc(C#N)c(Cl)c2)n1)NC(=O)c1cc(C(C)O)[nH]n1 (stereo not given) + CC(Nc1ncnc2nc[nH]c12)c1cc2cccc(Cl)c2c(=O)n1-c1ccccc1", "Target Under Test": "945468-187-T-J2-PDC spheroids viability", "Attribute Measured": "viability, T/C", "Scale Unit": "%", "Number": 108}
{"Compound": "Cn1ncc(Cl)c1-c1cc(C(=O)NC(CN)Cc2cccc(F)c2)sc1Cl (stereo not given) + CC(Nc1ccc2c(c1)OCCn1cc(N3C(=O)OCC3C(F)F)nc1-2)C(N)=O", "Target Under Test": "945468-187-T-J2-PDC spheroids viability", "Attribute Measured": "viability, T/C", "Scale Unit": "%", "Number": 95.9}
{"Compound": "CC1(C)CCC(CN2CCN(c3ccc(C(=O)NS(=O)(=O)c4ccc(NCC5CCOCC5)c([N+](=O)[O-])c4)c(Oc4cnc5[nH]ccc5c4)c3)CC2)=C(c2ccc(Cl)cc2)C1 + CC(Nc1ncnc2nc[nH]c12)c1cc2cccc(Cl)c2c(=O)n1-c1ccccc1", "Target Under Test": "945468-187-T-J2-PDC spheroids viability", "Attribute Measured": "viability, T/C", "Scale Unit": "%", "Number": 99.8}

API: the following record is the query input.
**Query** # query: viability, T/C of entry CC1(C)CCC(Nc2ncc(C(F)(F)F)c(-c3c[nH]c4c(P(C)(C)=O)c(C#N)ccc34)n2)CN1 (stereo not given) + CC(Nc1ncnc2nc[nH]c12)c1cc2cccc(Cl)c2c(=O)n1-c1ccccc1
**Result** 77.8

---

- Test system: 945468-187-T-J2-PDC spheroids viability
- Test Method Notes: Anticancer human tumor 945468-187-T-J2-PDC cell line growth inhibition [PI3K];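 further: spheroids exposed to compounds for seven days before reading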
- Measurement Context: second compound 3.16 µM; first compound 0.000316 µM; active compounds read low; spheroids with HUVEC and MSC
Attribute Measured: viability, T/C (%)
Value expressed in %; do not type the unit.

**Query** # query: viability, T/C of entry Cn1ncnc1[C@H]1c2n[nH]c(=O)c3cc(F)cc(c23)N[C@@H]1c1ccc(F)cc1 + Cc1nc(NC(=O)N2CCCC2C(N)=O)sc1-c1ccnc(C(C)(C)C(F)(F)F)c1
**Result** 94

**Query** # query: viability, T/C of entry CC(C)n1nc(-c2ccc3oc(N)nc3c2)c2c(N)ncnc21 + CC(Nc1ncnc2nc[nH]c12)c1cc2cccc(Cl)c2c(=O)n1-c1ccccc1
**Result** 85.5

**Query** # query: viability, T/C of entry CC(=O)c1c(C)c2cnc(Nc3ccc(N4CCNCC4)cn3)nc2n(C2CCCC2)c1=O + CC(Nc1ncnc2nc[nH]c12)c1cc2cccc(Cl)c2c(=O)n1-c1ccccc1
**Result** 87.8

**Query** # query: viability, T/C of entry CC(=O)c1c(C)c2cnc(Nc3ccc(N4CCNCC4)cn3)nc2n(C2CCCC2)c1=O + Cc1nc(NC(=O)N2CCCC2C(N)=O)sc1-c1ccnc(C(C)(C)C(F)(F)F)c1
**Result** 79.2

**Query** # query: viability, T/C of entry CC(C)n1nc(-c2ccc3oc(N)nc3c2)c2c(N)ncnc21 + Cc1nc(NC(=O)N2CCCC2C(N)=O)sc1-c1ccnc(C(C)(C)C(F)(F)F)c1
**Result** 77

**Query** # query: viability, T/C of entry Cn1ncnc1[C@H]1c2n[nH]c(=O)c3cc(F)cc(c23)N[C@@H]1c1ccc(F)cc1 + CC(Nc1ncnc2nc[nH]c12)c1cc2cccc(Cl)c2c(=O)n1-c1ccccc1
**Result** 120
